Where do these numbers come from? They come from patent US20240270821A1.

Exercise: for every item that follows, state its recorded pEC50.
Target: hGLP-1R (Homo sapiens, UniProt P43220)
Sequence (P43220 24-463): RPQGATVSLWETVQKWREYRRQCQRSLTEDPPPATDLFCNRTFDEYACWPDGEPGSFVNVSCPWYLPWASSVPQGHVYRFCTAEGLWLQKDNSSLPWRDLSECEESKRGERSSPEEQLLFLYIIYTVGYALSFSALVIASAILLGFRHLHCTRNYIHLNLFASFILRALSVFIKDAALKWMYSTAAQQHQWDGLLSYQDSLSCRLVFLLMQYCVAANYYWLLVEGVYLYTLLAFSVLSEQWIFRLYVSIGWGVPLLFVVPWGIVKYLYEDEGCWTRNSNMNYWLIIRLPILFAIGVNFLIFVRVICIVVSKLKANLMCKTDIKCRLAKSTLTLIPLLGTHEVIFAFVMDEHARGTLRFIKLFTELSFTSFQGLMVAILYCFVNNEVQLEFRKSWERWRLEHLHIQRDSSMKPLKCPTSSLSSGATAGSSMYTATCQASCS
Assay: Functional cAMP activation in the presence of 0.1% casein (no HSA);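 further: intracellular cAMP rise after 30 min at 37 °C read by HTRF, normalized between buffer only (0%) and maximal control ligand (100%), four-parameter variable-slope fit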
Format: cell-based
Conditions: in the presence of 0.1% casein (no HSA); geometric mean; read-out: Relative cAMP EC50, hGLP-1R
Starred links: 1 amine or outer side, 2 acyl side, 3 side chain; linkers in the order of their positions; H or OH if unused. Non-standard residues stand in square brackets, D forms with d. Groups on a side chain read outwards from the residue. *: point of attachment. C18 diacid = O=C(O)CCCCCCCCCCCCCCCCC(=O)*; γGlu = O=C(O)[C@H](CCC(=O)[*:2])N[*:1]; 4Pal = N[C@@H](Cc1ccncc1)C(=O)O; αMeL = CC(C)C[C@](C)(N)C(=O)O; Orn = NCCC[C@H](N)C(=O)O; AEEA = NCCOCCOCC(=O)O; Aib = CC(C)(N)C(=O)O
Note on pEC50: it is the negative log10 of concentration, concentration in mol/L.

Given the substance H-Y[Aib]QGTFTSDFS[Orn][αMeL]LDKK([AEEA-AEEA-γGlu-C18 diacid])AQ[Aib]AFIEYLLE[dA]GPSSGEPPPSGQ-NH2 [Example 157] , write its reported pEC50.
8.52

# return recorded pEC50 for input H-Y[Aib]QGTFTSDFS[Orn][αMeL]LDKK([AEEA-γGlu-C18 diacid])AQ[Aib]AFIEYLLEGGPSSGAPPPGGS[AEEA]-NH2 [Example 66]
8.41

Report measured pEC50; entry is H-Y[Aib]QGTFTSDFS[Orn][αMeL]LDKK([γGlu-AEEA-γGlu-C18 diacid])AQ[Aib]AFIEYLLE[Aib]GPSSGAPPPSG[4Pal]-NH2 [Example 277]
8.25
